Attribution: paper PMC2756588

# SYSTEM: Bem1-1, P29366
# Sequence (P29366 55-141): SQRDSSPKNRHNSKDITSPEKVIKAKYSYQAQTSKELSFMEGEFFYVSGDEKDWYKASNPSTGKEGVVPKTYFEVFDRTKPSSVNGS
# PROTOCOL_DESCRIPTION: SPOT array
# CONDITIONS: median of control spots 4282
TEST_READOUT: SPOT intensity

Worked cases, answers included:
LKHGWKPLRPIKLIS; 0
RRLRDKYKLPIVDAD; 0
RRSKSLPTTPGIRSG; 1
GDHPKGPPPPPPPDE; 0
TPTSGPPLLPPRNTM; 0

(P) LPPPPPPPPPPPLPQ
(Q) DHPKGPPPPPPPDEK
// max by SPOT intensity over [ P , Q ] Please reply using the label of the selected record. Q

(A) MAMRPIPPLPTESEY
(B) RRGPAPPPPPRASRP
// max by SPOT intensity over [ A , B ] Please reply using the label of the selected record. B
(B: 3, A: 0)

(I) GATNNAPTLPKRKNP
(II) SSAAPPPPPRRATPE
# return whichever of I and II has the smaller SPOT intensity Please reply using the label of the selected record. I
(I: 0, II: 1)

(1) RRRDFGAPANKRPRR
(2) RFKRHRLEFPFNESE
// max by SPOT intensity over [ 1 , 2 ] Please reply using the label of the selected record. 2

(A) NILKRRPLKLEAPSK
(B) NVLRKILEIPLHSFS
// max by SPOT intensity over [ A , B ] Please reply using the label of the selected record. B
